Target: opioid δ receptor (Homo sapiens)
Construct: expressed in transfected cells; host or cells: CHO cells
Experiment: Opioid receptor functional test (Lance Ultra cAMP Kit), δ receptor agonist activity
Assay type: cell-based
Settings: maximum response relative to SNC80 taken as 100%; hydrochloride was used; read-out: δ Receptor Emax
READOUT_TYPE: Emax (%)
Enter your answer as a number in %; do not include the unit.

{"columns": ["COMPOUND", "RECORDED_VALUE"],
 "data": [
  ["CCCN1CC[C@@]23c4cc(O)ccc4C[C@@H]1[C@]21CC[C@@H]2[C@H]3[C@@H](CN2C(=O)c2ccccc2)C1", 99],
  ["O=C(c1ccccc1)N1C[C@H]2O[C@@]34CC[C@@H]1[C@@H]2[C@@]31CCN(CC2CC2)[C@@H]4Cc2ccc(O)cc21", 127],
  ["O=C(c1ccccc1)N1C[C@H]2O[C@@]34CC[C@@H]1[C@@H]2[C@@]31CCN(CCO)[C@@H]4Cc2ccc(O)cc21", 95],
  ["O=C(c1ccco1)N1C[C@H]2O[C@@]34CC[C@@H]1[C@@H]2[C@@]31CCN(CC2CC2)[C@@H]4Cc2ccc(O)cc21", 82],
  ["Oc1ccc2c(c1)C13CCN(CC4CC4)C(C2)C12CCC1C3[C@@H](CN1c1nccs1)C2 (stereo partly shown)", 81],
  ["CC(C)N(Cc1ccccc1)C(=O)N1C[C@H]2C[C@@]34CCC1C2[C@@]31CCN(CC2CC2)[C@@H]4Cc2ccc(O)cc21 (stereo partly shown)", 91]
]}

Attention now shifts to the item below.
Challenge: Return Emax (reported value) for this compound: O=C(/C=C/c1ccccc1)N1C[C@H]2OC34CCC1C2C31CCN(CC2CC2)C4Cc2ccc(O)cc21 (stereo partly shown)
Response given: 63

----------
Target: opioid κ receptor (Homo sapiens, UniProt P41145)
Construct: expressed in transfected cells; host or cells: CHO cells
Sequence (P41145 whole entry): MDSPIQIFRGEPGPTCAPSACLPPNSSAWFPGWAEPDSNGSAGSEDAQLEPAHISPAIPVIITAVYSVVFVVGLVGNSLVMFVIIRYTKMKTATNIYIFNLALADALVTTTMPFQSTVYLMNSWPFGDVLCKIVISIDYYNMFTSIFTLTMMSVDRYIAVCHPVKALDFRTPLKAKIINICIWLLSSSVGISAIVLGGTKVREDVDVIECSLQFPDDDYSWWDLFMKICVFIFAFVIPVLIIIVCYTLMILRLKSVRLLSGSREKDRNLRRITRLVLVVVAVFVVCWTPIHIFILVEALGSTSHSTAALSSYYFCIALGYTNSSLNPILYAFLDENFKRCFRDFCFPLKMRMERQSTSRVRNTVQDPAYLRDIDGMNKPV
Experiment: Opioid receptor functional test (Lance Ultra cAMP Kit), κ receptor agonist activity
Format: cell-based
Conditions: maximum response relative to U-69593 taken as 100%; hydrochloride was used; read-out: κ Receptor Emax
READOUT_TYPE: Emax (%)
Enter your answer as a number in %; do not include the unit.

Some molecules with recorded Emax:
{"columns": ["MOLECULE", "READOUT_TYPE", "MEASUREMENT_UNIT", "RECORDED_VALUE"],
 "data": [
  ["Cc1cc(C)nc(N2C[C@H]3CC45CCC2C3C42CCN(C[C@H](C)O)C5Cc3ccc(O)cc32)n1 (stereo partly drawn) [Compound 285]", "Emax", "%", 78],
  ["Cc1cc(C)nc(N2C[C@H]3CC45CCC2C3C42CCN(CC3CC3)C5Cc3ccccc32)n1 (stereo partly drawn) [Compound 300]", "Emax", "%", 39]
]}

Attention now shifts to the item below.
Challenge: Return Emax (reported value) for this molecule: Oc1ccc2c(c1)C13C(O)CN(CC4CC4)C(C2)C12CCC1C3[C@@H](CN1Cc1ccccc1)O2 (stereo partly drawn) [Compound 329]
Response given: 14

----------
Target: opioid μ receptor (Homo sapiens, UniProt P35372)
Construct: expressed in transfected cells; host or cells: CHO cells
Sequence (P35372 whole entry): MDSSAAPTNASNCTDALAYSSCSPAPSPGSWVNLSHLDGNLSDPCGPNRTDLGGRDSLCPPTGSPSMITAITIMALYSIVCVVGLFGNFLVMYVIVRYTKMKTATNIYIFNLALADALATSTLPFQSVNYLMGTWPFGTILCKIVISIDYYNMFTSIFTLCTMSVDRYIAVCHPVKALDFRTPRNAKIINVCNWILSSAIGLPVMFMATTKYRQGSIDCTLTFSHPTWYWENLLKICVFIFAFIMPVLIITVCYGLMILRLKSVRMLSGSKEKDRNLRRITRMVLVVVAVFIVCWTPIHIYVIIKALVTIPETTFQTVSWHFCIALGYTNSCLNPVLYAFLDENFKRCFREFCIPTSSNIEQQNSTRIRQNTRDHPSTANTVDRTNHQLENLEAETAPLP
Assay: Opioid receptor functional test (Lance Ultra cAMP Kit), μ receptor agonist activity
Assay type: cell-based
Settings: maximum concentration (10 μM), reaction did not reach the maximum, EC50 N.C.; relative to DAMGO; hydrochloride was used; read-out: μ Receptor responce rate at the maximum concentration (reference value)
READOUT_TYPE: Emax at 10 µM (%)
Enter your answer as a number in %; do not include the unit.

{"columns": ["COMPOUND", "READOUT_TYPE", "MEASUREMENT_UNIT", "RECORDED_VALUE"],
 "data": [
  ["O=C(/C=C/c1ccccc1)N1C[C@H]2OC34CCC1C2C31CCN(CC2CC2)C4Cc2ccc(O)cc21 (some centres unmarked)", "Emax at 10 µM", "%", 3],
  ["O=C(c1ccccc1)N1C[C@H]2C[C@@]34CC[C@@H]1[C@@H]2[C@@]31CCN(CCF)[C@@H]4Cc2ccc(O)cc21", "Emax at 10 µM", "%", 20],
  ["O=C(c1ccccc1)N1C[C@H]2C[C@@]34CC[C@@H]1[C@@H]2[C@@]31CCN(CC2CC2)[C@@H]4Cc2ccc(O)cc21", "Emax at 10 µM", "%", 4.7],
  ["O=C(N1CCCCC1)N1C[C@H]2CC34CCC1C2C31CCN(CC2CC2)C4Cc2ccc(O)cc21 (some centres unmarked)", "Emax at 10 µM", "%", 4.6],
  ["O=C(c1cccc(Cl)c1)N1C[C@H]2C[C@@]34CC[C@@H]1[C@@H]2[C@@]31CCN(CC2CC2)[C@@H]4Cc2ccc(O)cc21", "Emax at 10 µM", "%", 8.8],
  ["Oc1ccc2c(c1)C13CCN(CC4CC4)C(C2)C12CCC1C3[C@@H](CN1c1nccs1)C2 (some centres unmarked)", "Emax at 10 µM", "%", 11],
  ["CCCN1CC[C@@]23c4cc(O)ccc4C[C@@H]1[C@]21CC[C@@H]2[C@H]3[C@@H](CN2C(=O)c2ccccc2)C1", "Emax at 10 µM", "%", 7.9],
  ["CC(C)COC(=O)N1C[C@H]2CC34CCC1C2C31CCN(CC2CC2)C4Cc2ccc(O)cc21 (some centres unmarked)", "Emax at 10 µM", "%", 7.6],
  ["CC(C)NC(=O)N1C[C@H]2CC34CCC1C2C31CCN(CC2CC2)C4Cc2ccc(O)cc21 (some centres unmarked)", "Emax at 10 µM", "%", 2.8],
  ["Nc1ccc2c(c1)[C@]13CCN(CC4CC4)[C@H](C2)[C@]12CCC1C3[C@@H](CN1C(=O)c1ccccc1)O2 (some centres unmarked)", "Emax at 10 µM", "%", 2.5]
]}

Attention now shifts to the item below.
Challenge: Return Emax at 10 µM (reported value) for this compound: O=C(c1ccco1)N1C[C@H]2O[C@@]34CC[C@@H]1[C@@H]2[C@@]31CCN(CC2CC2)[C@@H]4Cc2ccc(O)cc21
Response given: 5.4

----------
Biological target: opioid κ receptor (Homo sapiens)
Construct: expressed in transfected cells; host or cells: CHO cells
Experiment: Opioid receptor functional test (Lance Ultra cAMP Kit), κ receptor agonist activity
Assay type: cell-based
READOUT_TYPE: EC50

Challenge: Return EC50 (reported value) for this compound: O=C(Oc1ccccc1)N1C[C@H]2CC34CCC1C2C31CCN(CC2CC2)C4Cc2ccc(O)cc21 (some centres unmarked)
Response given: > 1 nM

Challenge: Return EC50 (reported value) for this compound: CN1CC[C@@]23c4cc(O)ccc4C[C@@H]1[C@]21CC[C@@H]2[C@H]3[C@@H](CN2C(=O)c2ccccc2)O1
Response given: > 10 nM

----------
Catalogue of EC50 values
Biological target: opioid δ receptor (Homo sapiens, UniProt P41143)
Construct: expressed in transfected cells; host or cells: CHO cells
Sequence (P41143 whole entry): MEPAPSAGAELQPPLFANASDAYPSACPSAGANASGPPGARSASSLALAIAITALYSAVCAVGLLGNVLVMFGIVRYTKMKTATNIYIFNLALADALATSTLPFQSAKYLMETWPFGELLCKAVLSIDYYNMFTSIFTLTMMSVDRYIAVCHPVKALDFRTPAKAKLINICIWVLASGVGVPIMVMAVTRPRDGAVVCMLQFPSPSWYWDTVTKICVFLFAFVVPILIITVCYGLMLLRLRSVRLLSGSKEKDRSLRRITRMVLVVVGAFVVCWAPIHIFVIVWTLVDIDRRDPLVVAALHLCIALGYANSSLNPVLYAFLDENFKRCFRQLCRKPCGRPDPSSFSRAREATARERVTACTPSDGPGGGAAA
Experiment: Opioid receptor functional test (Lance Ultra cAMP Kit), δ receptor agonist activity
Assay type: cell-based
Conditions: CHO cells expressing δ opioid receptor, 10 μM forskolin, cAMP; hydrochloride was used; read-out: δ Receptor EC50 value

{"columns": ["COMPOUND", "EC50"],
 "data": [
  ["O=C(c1ccccc1)N1C[C@H]2O[C@@]34CC[C@@H]1[C@@H]2[C@@]31CCN(CC2CC2)[C@@H]4Cc2ccc(O)cc21", "< 0.001 µM"],
  ["CC(C)NC(=O)N1C[C@H]2CC34CCC1C2C31CCN(CC2CC2)C4Cc2ccc(O)cc21 (stereo partly drawn)", "< 0.001 µM"],
  ["Cc1cc(C)nc(N2C[C@H]3CC45CCC2C3C42CCN(C[C@H](C)O)C5Cc3ccc(O)cc32)n1 (stereo partly drawn)", "< 0.01 µM"]
]}

Challenge: Return EC50 (reported value) for this compound: O=C(c1ccccc1)N1C[C@H]2O[C@@]34CC[C@@H]1[C@@H]2[C@@]31CCN(CCO)[C@@H]4Cc2ccc(O)cc21
Response given: < 0.01 µM

Challenge: Return EC50 (reported value) for this compound: O=C(c1ccccc1)N1C[C@H]2O[C@@]34CC[C@@H]1[C@@H]2[C@@]31CCN(CC2CC2)[C@@H]4Cc2cccc(O)c21
Response given: < 0.01 µM

Challenge: Return EC50 (reported value) for this compound: O=C(N1CCCCC1)N1C[C@H]2CC34CCC1C2C31CCN(CC2CC2)C4Cc2ccc(O)cc21 (stereo partly drawn)
Response given: < 0.001 µM

Challenge: Return EC50 (reported value) for this compound: Oc1ccc2c(c1)C13CCN(CC4CC4)C(C2)C12CCC1C3[C@@H](CN1c1nc(-c3ccccc3)cs1)C2 (stereo partly drawn)
Response given: < 0.05 µM

Challenge: Return EC50 (reported value) for this compound: COc1cc2c(cc1[N+](=O)[O-])C[C@H]1N(CC3CC3)CC[C@@]23C2C4CC[C@@]13C[C@@H]2CN4c1nc(C)cc(C)n1 (stereo partly drawn)
Response given: < 0.05 µM

Challenge: Return EC50 (reported value) for this compound: NC(=O)c1ccc2c(c1)[C@]13CCN(CC4CC4)[C@H](C2)[C@]12CCC1C3[C@@H](CN1C(=O)c1ccccc1)O2 (stereo partly drawn)
Response given: < 0.01 µM
